Tested on: HCC-2998 colon
test.summary: NCI-60 one-dose screen, 48 h
condition.parameters: 10 µM unless noted
Compounds without any hit were thinned out: in the full panel of roughly 83,000, 20% have a hit. Active and inactive are the calls of the source. The calls were made as follows: active = growth percent below 10; inactive = the rest.
Field 'call' accepts T for active, F for inactive

| molecule | test.target | assigned.class |
| --- | --- | --- |
| COc1cc(C(=O)NNC(=O)c2ccccc2O)cc(OC)c1OC | HCC-2998 colon | F |
| CC(C)(c1ccc(OCC(O)CNCc2ccco2)cc1)c1ccc(OCC(O)CNCc2ccco2)cc1 (stereo not given) | HCC-2998 colon | F |
| c1ccc(CNCCN(CCNCc2ccccn2)Cc2ccc3ccccc3c2)nc1 | HCC-2998 colon | T |
| FC(F)(F)c1cn(CC2CNC2)c2ncnc(Cl)c12 | HCC-2998 colon | F |
| COc1cc(-c2nc(N)n(CC(=O)Nc3ccc(/C(C)=N\O)cc3)n2)cc(OC)c1OC | HCC-2998 colon | F |

# lookup: test call for Cc1ccc(N(CC2=NCCN2)c2cccc(O)c2)cc1 F

* * *

Tested on: HOP-92 NSCLC
test.summary: NCI-60 one-dose screen, 48 h (100 = growth as untreated, 0 = no growth, -100 = all killed)
condition.parameters: 10 µM unless noted
The panel holds about 83,000 compounds, 20% with a hit somewhere; the sample as a whole holds those more often.
Entries and their growth values follow.
Provide the reading as a plain figure in %.

| compound.structure.string | growth (%) |
| --- | --- |
| COc1cc2ncn3c(=O)c4c5c(sc4nc3c2cc1OC)CCCCC5 | 81.9 |
| COc1ccc(Cl)cc1NC(=O)c1cc2c([nH]1)-c1nc(N)sc1CCC2 | 132 |

growth measured on CCCCCCCCCCCCCCCCNc1ccccc1 = 97.7

growth measured on C[C@]12O[C@H]1[C@H](O)c1c(cc(O)c3c1C(=O)c1cccc(O)c1-3)C2=O = 101

growth measured on CC(=O)Nc1ccc([I+]c2ccc([N+](=O)[O-])cc2)cc1 = 90.5

growth measured on Cc1c(F)cccc1NC(=O)c1sc2nc3c(cc2c1N)CCCCC3 = 70.5

growth measured on COc1ccccc1S(=O)(=O)Nc1ccc2c3c(cc(-c4cnn(C5CC5)c4)nc13)C(=O)N2C = 40.7

growth measured on O=C(Nc1ccc(-n2ccc3c(NC(=O)c4ccccc4)ncnc32)cc1)c1cccc(C(F)(F)F)c1 = 81.2

growth measured on O=C(Nc1ccc(-n2ccc3c(NC(=O)c4ccccc4)ncnc32)cc1)Nc1cccc(Cl)c1Cl = -21.1

growth measured on COC(=O)c1ccc(NC(N)=NCC(C)(C)COc2ccc(C(F)(F)F)cc2)nc1 = 47.1

* * *

Tested on: UACC-62 melanoma
test.summary: NCI-60 one-dose screen, 48 h (100 = growth as untreated, 0 = no growth, -100 = all killed)
condition.parameters: 10 µM unless noted
About 83,000 compounds went through this panel and 20% of them were active in at least one assay; those are over-represented in the sample as a whole.
Returns the class for an entry based on its growth. Class ranges: low = under 50%, middle = from 50% up to 90%, high = 90% and over

Would you please look over these solved cases?
| molecule | assigned.class |
| --- | --- |
| CC(CN(C)C)CN1c2ccccc2CCc2ccccc21 (stereo not given) | middle |
| C=CCn1c(SCC(=O)Nc2ccc(C(=O)/C=C/c3cc(OC)c(OC)c(OC)c3)cc2)nnc1-c1ccc(OC)cc1 | low |
| CCOC(=O)NNc1nncc2ccccc12 | high |

Place this molecule in its band: O=C(O)c1cccc2oc(-c3ccccc3O)nc12 middle

* * *

Test system: NCI-H522 lung
test.summary: NCI-60 one-dose screen, 48 h (100 = growth as untreated, 0 = no growth, -100 = all killed)
condition.parameters: 10 µM unless noted
About 83,000 compounds went through this panel and 20% of them were active in at least one assay; those are over-represented in the sample as a whole.
measurement.name: growth (%)
Provide the reading as a plain figure in %.

Examples with answers:
| compound | growth [%] |
| --- | --- |
| N#Cc1c2c(c(N)[nH]c1=O)C(=O)NC2(O)c1ccccc1 (stereo not drawn) | 85.1 |
| FC(F)(F)c1cn(CCN2CCOCC2)c2ncnc(Cl)c12 | 20.5 |
| O=C(Nc1cccc([N+](=O)[O-])c1)Nc1cccc([N+](=O)[O-])c1 | 10.1 |
| COc1ccc(-c2nn(-c3ccc(NC(=O)Nc4ccc(Cl)c(Cl)c4)cc3)cc2-c2ccncc2)cc1Cl | 0.622 |
| O=C(NCCNc1nccc(-c2c(-c3cccc(O)c3)nc3sccn23)n1)Nc1cccc(C(F)(F)F)c1 | -5.9 |
| O=[N+]([O-])c1ccccc1NC1c2ccccc2Oc2ccccc21 | 26.3 |
| C[C@H]1C=C(C[C@@H](O)CC#CC#CCCCCC[C@@H](O)[C@H]2CCC(=O)O2)C(=O)O1 | 78.7 |
| COC(=O)c1ccc(NC(N)=NCC(C)(C)COc2ccc(C(F)(F)F)cc2)nc1 | 37.2 |

growth measured on O=C1CCC(c2c(O)cc(O)c3c(=O)c(O)c(-c4ccc(O)c(O)c4)oc23)N1 (stereo not drawn) = 70.9

growth measured on O=C(Nc1cccc([N+](=O)[O-])c1)c1ccc2ccccc2c1O = -8.09

growth measured on CC(NCCC(c1ccccc1)c1ccccc1)c1ccccc1 (stereo not drawn) = 74.8

growth measured on CCC1S/C(=N\N=C(/C)c2ccco2)N(c2ccccc2)C1=O (stereo not drawn) = 74.7

growth measured on O=C(NCCNc1nccc(-c2c(-c3cccc(O)c3)nc3sccn23)n1)Nc1cc(C(F)(F)F)cc(C(F)(F)F)c1 = 69.5

* * *

System: SK-MEL-5 melanoma
test.summary: NCI-60 one-dose screen, 48 h
condition.parameters: 10 µM unless noted
About 83,000 compounds went through this panel and 20% of them were active in at least one assay; those are over-represented in the sample as a whole. Calls of active or inactive are those of the source. The calls were made as follows: active = growth percent below 10; inactive = the rest.
Field 'call' accepts TRUE = active, FALSE = inactive

Would you please look over these solved cases?
| molecule | test.target | assigned.class |
| --- | --- | --- |
| COc1ccc(-c2nn(-c3ccc(NC(=O)Nc4ccc(Cl)c(Cl)c4)cc3)cc2-c2ccncc2)cc1Cl | SK-MEL-5 melanoma | TRUE |
| CN[C@@H](CCCNC(N)=NC/C=C(/C)CCC=C(C)C)C(=O)N(C)[C@@H](CCCNC(N)=NCC=C(C)C)C(=O)N[C@H](C)[C@H](OS(=O)(=O)O)c1ccc(OS(=O)(=O)O)c(COS(=O)(=O)O)c1 | SK-MEL-5 melanoma | FALSE |
| COc1cc(C(=O)N2CCN(C(=O)c3cc(OC)c(OCc4ccccc4)cc3N)CC2)c(N)cc1OCc1ccccc1 | SK-MEL-5 melanoma | FALSE |
| COc1ccc(-n2c(-c3ccc(NC(=O)CCCl)cc3)nnc2-c2cc(OC)c(OC)c(OC)c2)cc1 | SK-MEL-5 melanoma | FALSE |

# lookup: test call for COc1ccccc1C(OC(C)=O)OC(C)=O FALSE

# lookup: test call for CCCCNc1cc(C(=O)O)cc(S(N)(=O)=O)c1Oc1ccccc1 FALSE

# lookup: test call for C#CCn1c(-c2cc(OC)c(OC)cc2Br)nc(-c2ccccc2)c1-c1ccccc1 FALSE

# lookup: test call for COc1ccc(OCC(O)CN2CCN(c3ccc(Cl)cc3)CC2)cc1 (stereo not drawn) FALSE

* * *

Tested on: A498 renal
test.summary: NCI-60 one-dose screen, 48 h (100 = growth as untreated, 0 = no growth, -100 = all killed)
condition.parameters: 10 µM unless noted
About 83,000 compounds went through this panel and 20% of them were active in at least one assay; those are over-represented in the sample as a whole.
Label rule, in plain words: growth of 70% and up is Satisfied, under 70% is Not satisfied.

Would you please look over these solved cases?
| compound | assigned.class |
| --- | --- |
| CC1(C)CC(=O)C2=C(C1)OC1=C(C(=O)CC(C)(C)C1)C2c1ccc(OCc2cn(-c3ccc(F)cc3F)nn2)cc1 | Not satisfied |
| COc1ccc(C2=NN(C(=O)COc3ccc(Cl)cc3)C(O)(c3cc(F)c(Cl)cc3Cl)C2)cc1 (stereo not given) | Satisfied |
| Cc1nc(N)nc(SCc2ccccc2)c1Br | Not satisfied |

For this compound, is measured growth 70% or higher? Cc1cccc(Cc2cnc(NC(=O)CCc3ccc(C)o3)s2)c1 Not satisfied

* * *

Tested on: UACC-257 melanoma
test.summary: NCI-60 one-dose screen, 48 h (100 = growth as untreated, 0 = no growth, -100 = all killed)
condition.parameters: 10 µM unless noted
Compounds without any hit were thinned out: in the full panel of roughly 83,000, 20% have a hit.
Label rule, in plain words: growth of 80% and up is 1.0, under 80% is 0.0.

Would you please look over these solved cases?
| compound | test.target | assigned.class |
| --- | --- | --- |
| CCCC(=O)Oc1ccc(/C(=C(\C)c2ccc(Cl)cc2)c2ccc(OCCN(CC)CC)cc2)cc1 | UACC-257 melanoma | 0.0 |
| CC(=O)N1N=C2N(Cc3ccccc3)C(=O)c3c(sc4c3CCCC4)N2C1c1cn(-c2ccccc2)nc1-c1ccc(Cl)cc1 (stereo unspecified) | UACC-257 melanoma | 1.0 |
| O=[N+]([O-])c1cccc2cc(S(=O)(=O)O)ccc12 | UACC-257 melanoma | 1.0 |

For this compound, is measured growth 80% or higher? Cc1cc[n+](CCCC[n+]2ccc(C)cc2)cc1 1.0

For this compound, is measured growth 80% or higher? COc1cc2c(cc1OC)-c1c(oc3c4c(ccc3c1=O)OC(C)(C)C=C4)CO2 0.0

For this compound, is measured growth 80% or higher? O=C(NNC(=O)c1ccc([N+](=O)[O-])cc1)c1ccc([N+](=O)[O-])cc1 1.0

For this compound, is measured growth 80% or higher? C[C@]12O[C@H]1[C@H](O)c1c(cc(O)c3c1C(=O)c1cccc(O)c1-3)C2=O 1.0

For this compound, is measured growth 80% or higher? COc1ccc(-c2nn(-c3ccc(NC(=O)Nc4cc(C(F)(F)F)cc(C(F)(F)F)c4)cc3)cc2-c2ccncc2)cc1Cl 0.0

For this compound, is measured growth 80% or higher? Cc1cc(-c2ccccc2)nc2ccccc12 1.0

For this compound, is measured growth 80% or higher? CCN(CC)C(=O)C1CCN(C(=O)c2ccccc2)CC1 1.0

For this compound, is measured growth 80% or higher? C=C1C(=O)O[C@H]2[C@H]1CC/C(COC(=O)c1ccc(Br)cc1)=C\CC[C@@]1(C)O[C@@H]21 0.0
